test: in vivo
Parameters: species or system mice
run-parameters: male, NODSCID 1L2RγKO, mouse, iv, total radioactivity, Testes uptake
We label by threshold. Values of tissue uptake at 1 h strictly beneath 2 %ID/g are YES. Values of 2 %ID/g and up are NO.

molecule	label-class
COc1ccc(CCCC(=O)NCC(=O)N[C@@H](CCCCNC(=O)CN2CCN(CC(=O)O)CCN(CC(=O)O)CCN(CC(=O)O)CC2)C(=O)NC[C@H]2CC[C@H](C(=O)N[C@@H](Cc3c4ccccc4cc4ccccc34)C(=O)NCCCC[C@H](NC(=O)N[C@@H](CSCC(=O)O)C(=O)O)C(=O)O)CC2)cc1 [177Lu-HTK04048, metal not drawn]	NO
O=C(O)CCC[C@H](NC(=O)N[C@@H](CCCCNC(=O)[C@H](Cc1c2ccccc2cc2ccccc12)NC(=O)[C@H]1CC[C@H](CNC(=O)CN2CCN(CC(=O)O)CCN(CC(=O)O)CCN(CC(=O)O)CC2)CC1)C(=O)O)C(=O)O [177Lu-HTK03149, metal not drawn]	YES

In plain terms, does O=C(O)CCC[C@H](NC(=O)N[C@@H](CCCCNC(=O)[C@H](Cc1c2ccccc2cc2ccccc12)NC(=O)[C@H]1CC[C@H](CNC(=O)[C@H](CCCCNC(=O)CN2CCN(CC(=O)O)CCN(CC(=O)O)CCN(CC(=O)O)CC2)NC(=O)CNC(=O)CCCc2ccc(Cl)cc2)CC1)C(=O)O)C(=O)O [177Lu-HTK03153, metal not drawn] come in under 2 %ID/g for tissue uptake at 1 h? NO

Please let me know if COc1ccc(CCCC(=O)NCC(=O)N[C@@H](CCCCNC(=O)CN2CCN(CC(=O)O)CCN(CC(=O)O)CCN(CC(=O)O)CC2)C(=O)NC[C@H]2CC[C@H](C(=O)N[C@@H](Cc3c4ccccc4cc4ccccc34)C(=O)NCCCC[C@H](NC(=O)N[C@@H](CCCC(=O)O)C(=O)O)C(=O)O)CC2)cc1 [177Lu-HTK03170, metal not drawn] shows tissue uptake at 1 h below 2 %ID/g. NO

Hi there! Is tissue uptake at 1 h for COc1ccc(CCCC(=O)NCC(=O)N[C@@H](CCCCNC(=O)CN2CCN(CC(=O)O)CCN(CC(=O)O)CCN(CC(=O)O)CC2)C(=O)NC[C@H]2CC[C@H](C(=O)N[C@@H](Cc3c4ccccc4cc4ccccc34)C(=O)NCCCC[C@H](NC(=O)N[C@@H](COCC(=O)O)C(=O)O)C(=O)O)CC2)cc1 [177Lu-HTK04028, metal not drawn] below 2 %ID/g, do you know? NO

###

test: in vivo
run-parameters: male, NODSCID 1L2RγKO, mouse, iv, total radioactivity, Seminal uptake
Assign class by tissue uptake at 1 h: not lower than 4 %ID/g means condition met; lower than 4 %ID/g means condition not met.

molecule	label-class
O=C(O)CCC[C@H](NC(=O)N[C@@H](CCCCNC(=O)[C@H](Cc1c2ccccc2cc2ccccc12)NC(=O)Cc1ccc(CNC(=O)CN2CCN(CC(=O)O)CCN(CC(=O)O)CCN(CC(=O)O)CC2)cc1)C(=O)O)C(=O)O [68Ga-HTK04036, metal not drawn]	condition not met
O=C(O)CCC[C@H](NC(=O)N[C@@H](CCCCNC(=O)[C@H](Cc1c2ccccc2cc2ccccc12)NC(=O)Cc1cccc(CNC(=O)CN2CCN(CC(=O)O)CCN(CC(=O)O)CCN(CC(=O)O)CC2)c1)C(=O)O)C(=O)O [68Ga-HTK04037, metal not drawn]	condition met
O=C(O)CN1CCN(CC(=O)O)CCN(CC(=O)NC[C@H]2CC[C@H](C(=O)N[C@@H](Cc3c4ccccc4cc4ccccc34)C(=O)NCCCC[C@H](NC(=O)N[C@@H](C[C@H](F)C(=O)O)C(=O)O)C(=O)O)CC2)CCN(CC(=O)O)CC1 [68Ga-HTK04040, metal not drawn]	condition not met
O=C(O)CCC[C@H](NC(=O)N[C@@H](CCCCNC(=O)[C@H](Cc1c2ccccc2cc2ccccc12)NC(=O)[C@H]1CC[C@H](CNC(=O)CN2CCN(CC(=O)O)CCN(CC(=O)O)CCN(CC(=O)O)CC2)CC1)C(=O)O)C(=O)O [68Ga-HTK03149, metal not drawn]	condition met

Hi, just wondering whether O=C(O)CCCCC(NC(=O)N[C@@H](CCCCNC(=O)[C@H](Cc1c2ccccc2cc2ccccc12)NC(=O)[C@H]1CC[C@H](CNC(=O)CN2CCN(CC(=O)O)CCN(CC(=O)O)CCN(CC(=O)O)CC2)CC1)C(=O)O)C(=O)O (single isomer, unassigned) [68Ga-HTK03189A, metal not drawn] shows tissue uptake at 1 h of 4 %ID/g or higher. condition not met

Has O=C(O)CN1CCN(CC(=O)O)CCN(CC(=O)NC[C@H]2CC[C@H](C(=O)N[C@@H](Cc3c4ccccc4cc4ccccc34)C(=O)NCCCC[C@H](NC(=O)N[C@@H](C[C@@H](F)C(=O)O)C(=O)O)C(=O)O)CC2)CCN(CC(=O)O)CC1 [68Ga-HTK04033, metal not drawn] a recorded tissue uptake at 1 h greater than or equal to 4 %ID/g? condition not met

Tell me whether tissue uptake at 1 h is at least 4 %ID/g here: O=C(O)COC[C@H](NC(=O)N[C@@H](CCCCNC(=O)[C@H](Cc1c2ccccc2cc2ccccc12)NC(=O)[C@H]1CC[C@H](CNC(=O)CN2CCN(CC(=O)O)CCN(CC(=O)O)CCN(CC(=O)O)CC2)CC1)C(=O)O)C(=O)O [68Ga-HTK03187, metal not drawn] condition not met

Kindly determine if tissue uptake at 1 h recorded for O=C(O)C[C@H](NC(=O)N[C@@H](CCCCNC(=O)[C@H](Cc1c2ccccc2cc2ccccc12)NC(=O)[C@H]1CC[C@H](CNC(=O)CN2CCN(CC(=O)O)CCN(CC(=O)O)CCN(CC(=O)O)CC2)CC1)C(=O)O)C(=O)O [68Ga-HTK03161, metal not drawn] is above or exactly 4 %ID/g. condition met
